test: soluble on expression in E. coli; label from the status in PepcDB or PDB records

monomer-sequence	soluble on expression in E. coli
MGSDKIHHHHHHVKKSESLPVLIVTGLSGAGKSTVLNVFEDLRFFTIDGLPVGVVADLLEHLARDAMGRYRGVVLGMDLRQFDFLDEFEGALMRLEKMGVSPRIIYLEADSDTLVRRFATTRRPHPLEGGDLGLEAAVEHERNLLAPVRERADLILDTSEFSIHDLRRIVQKKWSSLGGSLRSLRVNLITFGFKYGVPSDADMVFDLRFLPNPYFDAKLKALSGKDPEIQQFVLGCEQGKTFFKRFLDFLLFLLPQYEAEGRYRITLAIGCTGGRHRSVSTAEALRDALKKSDYAVSLEHRHIDLG	not soluble
MAHHHHHHMYSTTNDKSENEDLNDVIEININNIANKLANILYITNVGMKENCELKNNLHFSKFLNDMRSYCVNLIQSINNLNSNFYNLTCLPVHSIPRNPYTNILDINVITNNISVDDNADKIKEKQTLLQSFHNKYDKNKTTFHQSIKHIETFNDQLFSALNNLDHIKMSIKYQDQESSTYGNVVSERLKNKQKDHEHLELYIARVHYGLF	not soluble
